# Experimental System: ZIKV E protein (GZ01) (Zika virus (strain GZ01))
# Assay Details: ELISA
Measured EC50 by item
Readout Name: EC50

2H-4 (antibody, V domains shown) VH: QVQLVQSGREVKKPGASVKVSCKGSGYTFTSYDINWVRQAPGQGLEWMGWMNPNSGNTGYAQKFQGRVTMTRNTSISTAYMELSSLRSGDTAVYYCARVSSGSYYGSYYYYYYGMDVWGQGTTVTVSS VL: SYELTQPPSASGTPGQRVTISCSGSSSNIGNNYVHWYQQLPGSAPKLLIYRNNQRPSGVPDRFSGSKSGTSGSLAISGLRSEDEADYYCASWDDSLSGHWVFGGGTKVTVL; 6.5 ng/mL
2L-2 (antibody, V domains shown) VH: EVQLVQSGAEVKKPGASVKVSCKASGYTFTSGHTFPSYDINWVRQATGQGLEWMGWMNPNRGNTGYAQKFQGRVTMTRNTSINTAYMELSSLRSEDTAVYYCARVRSGTNYGSYYYYYYGMDVWGQGTTVTVSS VL: QSVLTHRPSASGHPGQRVTISCSGSSSNIGNNYVYWYQQLPGTAPKLLIYRNNQRPSGVPDRFSGSKSGTSASLAISGLRSEDEADYYCAAWDDSLSGHWVFGGGTKLTVL; 216 ng/mL
2H-10 (antibody, V domains shown) VH: QVQLVQSGVEVKKPGASVEVSCQASGITSTSYDINWVRQANGQGLEWMGWMNPNSGNTGYAQKFQGRVTMTRNTSISTAYMELSSLRSEDTAVYYCARVSSGSYYGSYYYYYYGMDVWGQGTTVTVSS VL: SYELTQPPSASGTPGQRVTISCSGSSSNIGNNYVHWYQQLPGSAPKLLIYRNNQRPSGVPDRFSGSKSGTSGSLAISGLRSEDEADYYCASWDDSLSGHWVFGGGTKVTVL; 5.2 ng/mL
